biological target: Cyno TfR apical permuted N-term Avi-His (cynomolgus); experiment: SPR (Carterra LSA), 2+2 captured
Sequence (chain, as listed by the source limits assumed): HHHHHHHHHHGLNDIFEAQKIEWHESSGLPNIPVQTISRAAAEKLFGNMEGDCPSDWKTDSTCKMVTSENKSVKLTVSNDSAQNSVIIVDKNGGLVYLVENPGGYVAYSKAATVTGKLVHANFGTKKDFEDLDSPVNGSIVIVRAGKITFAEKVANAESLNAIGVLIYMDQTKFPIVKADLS
# maps each entry to its Kd
Express the result in nM but write the number alone.

Consider the reported Kd for these binders:
{"columns": ["Binder", "Value type", "Unit of measurement", "Measured result"],
 "data": [
  ["TFR.15.WH8.1.42A.LH 2+2 anti-TfR bispecific antibody (bispecific antibody, part only; not given: isotype IgG backbone and linker, not shown: another chain or arm of the molecule; a dimerising Fc or GST; large carriers; small tags and cut ends) scFv: EIVLTQSPATLSLSPGERATLSCRASSSIRAMNWYQQKPGQAPRRLIYDTSNRATGIPARFSGSGSGTDFTLTISSLEPEDFAVYYCHQRSSYPWTFGGGTKVEIKGGSEGKSSGSGSESKSTGGSQVQLVQSGAEVKKPGASVKVSCKASGYTFTSYYMHWVRQAPGQGLEWMGNIYPGSGSSNYAQKFQGRVTMTRDTSTSTVYMELSSLRSEDTAVYYCTRSSYYGNFDTMDNWGQGTTVTVSS", "Kd", "nM", 60],
  ["TFR.15.WH8.1.42A 2+2 anti-TfR bispecific antibody (bispecific antibody, part only; not given: isotype IgG backbone and linker, not shown: another chain or arm of the molecule; a dimerising Fc or GST; large carriers; small tags and cut ends) scFv: QVQLVQSGAEVKKPGASVKVSCKASGYTFTSYYMHWVRQAPGQGLEWMGNIYPGSGSSNYAQKFQGRVTMTRDTSTSTVYMELSSLRSEDTAVYYCTRSSYYGNFDTMDNWGQGTTVTVSSGGSEGKSSGSGSESKSTGGSEIVLTQSPATLSLSPGERATLSCRASSSIRAMNWYQQKPGQAPRRLIYDTSNRATGIPARFSGSGSGTDFTLTISSLEPEDFAVYYCHQRSSYPWTFGGGTKVEIK", "Kd", "nM", 88]
]}

--- query ---
Record summary for TFR.15.WH8.1.26H 2+2 anti-TfR bispecific antibody (bispecific antibody, part only; not given: isotype IgG backbone and linker, not shown: another chain or arm of the molecule; a dimerising Fc or GST; large carriers; small tags and cut ends) scFv: QVQLVQSGAEVKKPGASVKVSCKASGYTFTSYYMHWVRQAPGQGLEWMGNIYPGSGSSNYAQKFQGRVTMTRDTSTSTVYMELSSLRSEDTAVYYCTRSSYHGNFDTMDNWGQGTTVTVSSGGSEGKSSGSGSESKSTGGSEIVLTQSPATLSLSPGERATLSCRASSSIRYMNWYQQKPGQAPRRLIYDTSNRATGIPARFSGSGSGTDFTLTISSLEPEDFAVYYCHQRSSYPWTFGGGTKVEIK : reported Kd = 2200
